Value source: the Deep4Chem optical property database

This section presents compounds with their documented photoluminescence quantum yield values.
assay: photoluminescence quantum yield (fraction); solvent given as SMILES; details: in CC1CCCO1
Answer with a bare number; do not write a unit.

Example results:
> print(dat)
                                   compound               parameter.measured  numeric.readout
1  CC1=CC(C)=[N+]2C1=C(c1ccc(C)cc1)c1c(C)cc(/C=C/c3ccc4ccc5cccc6ccc3c4c56)n1[B-]2(F)F  photoluminescence quantum yield             0.64
2  COC(=O)C(Cc1ccc2oc(-c3ccc4c(c3)c3ccccc3n4-c3ccccc3)nc2c1)NC(=O)OC(C)(C)C (stereo not drawn)  photoluminescence quantum yield             0.93
3                CN(C)c1ccc(C#Cc2ccccc2)cc1  photoluminescence quantum yield            0.314

Measured photoluminescence quantum yield, `O=c1cc2cc(O)c3cccc4ccc(o1)c2c43` : 0.35

Measured photoluminescence quantum yield, `Cn1c2nc(=O)[nH]c(=O)c-2nc2ccccc21` : 0.3

Measured photoluminescence quantum yield, `O=c1cc2c(Br)c(O)c3cccc4ccc(o1)c2c43` : 0.15

Measured photoluminescence quantum yield, `CN(C)c1ccc(C#Cc2ccc(C#N)cc2)cc1` : 0.099

Measured photoluminescence quantum yield, `O=c1cc2cc(O)c3cc(O)cc4ccc(o1)c2c43` : 0.36
